target: Pin1 (Homo sapiens)
Sequence (Q13526 whole entry): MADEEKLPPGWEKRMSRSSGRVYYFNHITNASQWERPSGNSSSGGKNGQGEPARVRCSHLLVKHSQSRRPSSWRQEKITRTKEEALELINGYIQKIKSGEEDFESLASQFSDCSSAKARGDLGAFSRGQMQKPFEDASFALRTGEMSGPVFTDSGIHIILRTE
Measured property: pIC50
Hey, just a heads up that pIC50 is the negative log base 10 of the concentration in molar.

Q: Hello, I am looking for reported pIC50 with Pin1 (Homo sapiens) for CN(C)c1ccc(C2=NN=C(c3nc4cc(Cl)c(Cl)cc4[nH]3)C2)cc1 . Could you help?
A: 9.19

====

tested on: MCF-7; test: MTT cytotoxicity assay against breast cancer cell line MCF-7; conditions: read-out: In Vitro Cytotoxicity IC50 MCF-7; MTT assay, 24 h treatment
Measured property: pIC50
Expect pIC50 as a plain number equal to -log10 of the molar concentration.

Q: Request body: readout pIC50, system MCF-7, query CN(C)c1ccc(/C=C/C(=O)c2nc3cc(Cl)c(Cl)cc3[nH]2)cc1 . Return the value.
A: 4.57

====

test system: WI38; experiment: In vitro cytotoxicity against normal Human lung fibroblast (WI38) cell line; assay type: cell-based
Measured property: pIC50
Quick note: pIC50 means taking -log10 of the concentration in moles per liter.

Q: So what does the record say about pIC50 for CN(C)c1ccc(C2CC(c3nc4cc(Cl)c(Cl)cc4[nH]3)=NO2)cc1 (stereo not shown) ?
A: 4.15

====

Tested on: MCF-7
Assay: MTT cytotoxicity assay against breast cancer cell line MCF-7
Conditions: Homo sapiens, MCF7, 24 h, read-out: In Vitro Cytotoxicity IC50 MCF-7, MTT assay, 24 h treatment
Method: All our newly synthesized hybrids were evaluated for their in vitro anticancer activity by the standard MTT assay against a breast cancer cell line (MCF-7). MTT is a calorimetric assay which relies on the ability of live tumor cells to reduce yellow MTT (3-(4,5-dimethylthiazol-2-yl)-2,5-diphenyltetrazolium bromide) to purple formazan by mitochondrial dehydrogenases, then added DMSO to dissolve the purple formazan and quantified by measuring absorbance at a certain wavelength. […]
Parameter class (string): assigned from measured IC50. Ranges: bin 0 = under 20 µM, bin 1 = from 20 µM up to 40 µM, bin 2 = 40 µM and over

Study these solved cases before continuing.
Cc1nc(-c2ccc(Br)cc2)cn2c1nc1cc(Cl)c(Cl)cc12 [Compound 13] | bin 2
CN(C)c1ccc(/C=C/C(=O)c2nc3cc(Cl)c(Cl)cc3[nH]2)cc1 [Compound 4] | bin 1
C=C1c2nc3cc(Cl)c(Cl)cc3n2C=C(c2ccc(Br)cc2)N1c1ccccc1C [Compound 11] | bin 1

Okay, next one:
Q: Any idea which band CN(C)c1ccc(-c2cc(-c3nc4cc(Cl)c(Cl)cc4[nH]3)nc(N)c2C#N)cc1 [Compound 6] is in?
A: bin 0

====

Mark Criterion met for reported melting point of 200 °C or greater; mark Criterion not met for anything smaller.

Example results:
CN(C)c1ccc(C2=NN=C(c3nc4cc(Cl)c(Cl)cc4[nH]3)C2)cc1 | Criterion met
CC(=O)c1nc2cc(Cl)c(Cl)cc2n1CC(=O)c1ccc(Br)cc1 | Criterion met
C=C1c2nc3cc(Cl)c(Cl)cc3n2C=C(c2ccc(Br)cc2)N1c1ccccc1C | Criterion not met
C=C1c2nc3cc(Cl)c(Cl)cc3n2C=C(c2ccc(Br)cc2)N1c1ccc(C)cc1 | Criterion met
CN(C)c1ccc(C2C=C(c3nc4cc(Cl)c(Cl)cc4[nH]3)OC(N)=C2C#N)cc1 (stereo not shown) | Criterion not met
C=C1c2nc3cc(Cl)c(Cl)cc3n2C=C(c2ccc(Br)cc2)N1Cc1ccccc1 | Criterion not met

As a next step, examine the compound that follows.
Q: Is melting point at least 200 °C? Consider Cc1nc(-c2ccc(Br)cc2)cn2c1nc1cc(Cl)c(Cl)cc12
A: Criterion met

====

# reported IC50 at 24 h; entries follow
assay: In vitro cytotoxicity against normal Human lung fibroblast (WI38) cell line; format: cell-based; settings: human, WI38 normal lung fibroblast cells
Use µM as the unit, but write only the number.

// below: answered molecules
C=C1c2nc3cc(Cl)c(Cl)cc3n2C=C(c2ccc(Br)cc2)N1Cc1ccccc1 | 45.7
CN(C)c1ccc(C2=NN=C(c3nc4cc(Cl)c(Cl)cc4[nH]3)C2)cc1 | 67.9

Please examine the following record next.
Q: Suppose we examine the molecule CN(C)c1ccc(C2CC(c3nc4cc(Cl)c(Cl)cc4[nH]3)=NO2)cc1 (stereo not drawn) ; what IC50 at 24 h value has been reported?
A: 71.6

====

system: MCF-7; test: MTT cytotoxicity assay against breast cancer cell line MCF-7; settings: Homo sapiens, MCF7, 24 h, read-out: In Vitro Cytotoxicity IC50 MCF-7, MTT assay, 24 h treatment
Measured property: pIC50
Lab note — pIC50 values are minus log10 of concentrations in M.

CC(=O)c1nc2cc(Cl)c(Cl)cc2n1CC(=O)c1ccc(Br)cc1 [Compound 9] | 4.19
C=C1c2nc3cc(Cl)c(Cl)cc3n2C=C(c2ccc(Br)cc2)N1Cc1ccccc1 [Compound 12] | 4.50
C=C1c2nc3cc(Cl)c(Cl)cc3n2C=C(c2ccc(Br)cc2)N1c1ccc(C)cc1 [Compound 10] | 4.28

Q: Param item = CN(C)c1ccc(C2=NN=C(c3nc4cc(Cl)c(Cl)cc4[nH]3)C2)cc1 [Compound 5] ; retrieve measured pIC50.
A: 4.93

Q: // pIC50 lookup, key: CN(C)c1ccc(C2C=C(c3nc4cc(Cl)c(Cl)cc4[nH]3)OC(N)=C2C#N)cc1 (stereo not drawn) [Compound 7]
A: 4.68

Q: # query: pIC50 of entry CN(C)c1ccc(C2CC(c3nc4cc(Cl)c(Cl)cc4[nH]3)=NO2)cc1 (stereo not drawn) [Compound 8]
A: 5.06

====

Measured melting point of individual entries

As a guide, the following entries are already answered.
CN(C)c1ccc(C2CC(c3nc4cc(Cl)c(Cl)cc4[nH]3)=NO2)cc1 (stereo not drawn) | 155 to 158 °C
CN(C)c1ccc(-c2cc(-c3nc4cc(Cl)c(Cl)cc4[nH]3)nc(N)c2C#N)cc1 | 168 to 170 °C

Q: State the recorded melting point for this entry: CN(C)c1ccc(/C=C/C(=O)c2nc3cc(Cl)c(Cl)cc3[nH]2)cc1
A: 258 to 260 °C
